Test system: DU-145 prostate
Experiment: NCI tumour cell line growth inhibition, 48 h
Where a SMILES comes first, the peptide text is derived from it. [ ]: non-standard residue; d: D form. The star is where a group is joined. Bn2Val = CC(C)[C@@H](C(=O)*)N(Cc1ccccc1)Cc1ccccc1; NMeV = CN[C@H](C(=O)O)C(C)C; X29 = COc1ccc(CN*)c(OC)c1; dNMeA = CN[C@H](C)C(=O)O
Quick reference for TGI among some compounds

{"Compound": "COC(=O)NNC(c1ccc(Cl)cc1)c1ccc(Cl)cc1", "TGI": "> 100 µM"}
{"Compound": "Cc1ccc(-n2cc(-c3ccc(Cl)cc3)c3c(NN)ncnc32)cc1", "TGI": "12.8 µM"}
{"Compound": "CN(C)c1ccc(/C=C/C(=O)N[C@@H]2C(=O)N3[C@@H]2SC(C)(C)[C@@H]3C(=O)O)cc1", "TGI": "> 100 µM"}
{"Compound": "NC(=O)c1cc(N(CCO)CCO)c([N+](=O)[O-])cc1[N+](=O)[O-]", "TGI": "> 100 µM"}
{"Compound": "CN(C)c1ccc(/C=C2\\N=C(c3ccccc3)N(c3cc(C(F)(F)F)ccc3Cl)C2=O)cc1", "TGI": "> 100 µM"}
{"Compound": "CC(=O)OC1C2CCC3C(C)(O)C4CC(O)C(C)(C)C4(O)C(O)CC13CC2(C)O (stereo not drawn)", "TGI": "> 100 µM"}
{"Compound": "N#C/C(=C\\c1ccc([N+](=O)[O-])s1)c1nc2cc(Cl)ccc2s1", "TGI": "> 100 µM"}
{"Compound": "COc1ccc(CNC(=O)[C@@H]2CCCN2C(=O)[C@@H](C)N(C)C(=O)[C@H](C(C)C)N(C)C(=O)[C@@H](NC(=O)[C@H](C(C)C)N(Cc2ccccc2)Cc2ccccc2)C(C)C)c(OC)c1 (Bn2Val-V[NMeV][dNMeA]P-X29)", "TGI": "20.7 µM"}
